system: JNK2; construct: gene MAPK9; conditions: concentration: 1 μM, replicates: in singlicate; n = 1;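 note: KINOMEscan kinase panel screen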
measured-attribute: %Inh (%)
Provide only the numeric value, understood in %.

Reference set, count: 5
> print(dat)
                                   molecule  measured.number
1  CNC(=O)c1ccccc1Nc1nc(Nc2ccc(N3CCOCC3)cc2)ncc1Cl.Cl              100
2  CN1CCN(CCCNc2nccc(-c3c(-c4ccc(F)cc4)nn4cc(C(F)(F)F)ccc34)n2)CC1             91.7
3     O=C(Nc1n[nH]c2cc(-c3ccoc3)ccc12)C1CC1                0
4  Cn1cc(-c2ccc3c(c2)CCN3C(=O)Cc2cccc(F)c2)c2c(N)ncnc21               19
5  CCS(=O)(=O)c1ccc(OC)c(Nc2nccc(-c3c(-c4cccc(NC(=O)c5c(F)cccc5F)c4)nn4ncccc34)n2)c1               68

// %Inh value for O=C(NC1CCN(c2ccnc(Nc3ccc(F)cc3)n2)C1)c1cc2ccccc2s1 (centres unmarked) : 29

// %Inh value for O=C(Nc1ccccc1F)NC1CCN(c2ccnc(Nc3ccc(F)cc3)n2)CC1 : 0

// %Inh value for O=C(Nc1n[nH]c2nc(-c3ccc(O)cc3)ccc12)C1CC1 : 13

Each recorded value in this set is attributed to paper PMC5540273.
